# tested.target: UniProtKB P08684
# assay.method.text: Determination of IC50 against CYP3A4 by measurement of inhibition of midazolam metabolism (human liver microsomes, 1-hydroxymidazolam by LC-MS/MS)
# Assay type: biochemical
# Parameters: 0.1 mg/mL human liver microsomes
# test.conditions: 2 μM midazolam, 0.1 mg/mL human liver microsomes
Lab note: compare IC50 with 30 nM, writing 1 (yes) if less and 0 (no) if equal or more.

Consider the following illustrative entries.
>  <compound>
COc1cncc(NS(=O)(=O)c2ccccc2C(=O)NC2C3CC4CC(C3)CC2C4)c1 (centres unmarked) [Example 201]

>  <assigned.class>
1 (yes)

$$$$
>  <compound>
O=C(c1ccccc1S(=O)(=O)Nc1cccnc1)N1CCC(O)CC1 [Example 28]

>  <assigned.class>
0 (no)

$$$$
>  <compound>
COc1cncc(NS(=O)(=O)c2ccc(OCCN3CCOCC3)cc2C(=O)NCc2ccc(F)cc2)c1 [Example 265]

>  <assigned.class>
1 (yes)

$$$$
>  <compound>
COc1cncc(NS(=O)(=O)c2ccccc2C(=O)NCc2ccccc2F)c1 [Example 378]

>  <assigned.class>
1 (yes)

$$$$
>  <compound>
CCOc1cncc(NS(=O)(=O)c2ccccc2C(=O)N2CCCC(C)(C)C2)c1 [Example 298]

>  <assigned.class>
0 (no)

$$$$

Hello, I'm reviewing records and need to know if IC50 of COc1cncc(NS(=O)(=O)c2ccccc2C(=O)N(CC(C)O)C(C)C)c1 (centres unmarked) [Example 99] is below 30 nM. Could you check? 0 (no)

Hello, I'm reviewing records and need to know if IC50 of COc1cncc(NS(=O)(=O)c2ccccc2C(=O)NCCOc2ccccc2)c1 [Example 238] is below 30 nM. Could you check? 1 (yes)

Hello, I'm reviewing records and need to know if IC50 of COc1cncc(NS(=O)(=O)c2ccccc2C(=O)N[C@H]2C[C@@H]2c2ccccc2)c1 [Example 232] is below 30 nM. Could you check? 1 (yes)

----------
pKi: recorded values
# tested.target: UniProt:P08684
# assay.method.text: Determination of compound Kiapp against recombinant CYP3A4 enzyme (BFC fluorescent substrate)
# Type: biochemical
# test.conditions: Super. enzyme preparation, read-out: Kiapp (BFC, Super.)
To interpret pKi, take it as minus log10 of a concentration measured in moles per litre.

The following compounds have reported results that may help.
>  <compound>
Cc1cncc(NS(=O)(=O)c2ccccc2C(=O)NCC(C)(C)C)c1 [Example 330]

>  <readout.kind>
pKi

>  <result>
7.64

$$$$
>  <compound>
COc1cncc(NS(=O)(=O)c2ccccc2C(=O)NCCc2ccccc2Cl)c1 [Example 240]

>  <readout.kind>
pKi

>  <result>
8.49

$$$$
>  <compound>
O=C(NCc1ccc2c(c1)CCO2)c1ccccc1S(=O)(=O)Nc1cccnc1 [Example 82]

>  <readout.kind>
pKi

>  <result>
7.68

$$$$

I have this compound here, COCCN(C(=O)c1ccccc1S(=O)(=O)Nc1cncc(N)c1)C(C)C [Example 114] , and I need its recorded pKi. 6.98

I have this compound here, Cc1ccncc1NS(=O)(=O)c1ccccc1C(=O)NCCOc1ccccc1 [Example 171] , and I need its recorded pKi. 7.31

----------
# tested.target: UniProtKB P08684
# assay.method.text: Determination of IC50 against CYP3A4 by measurement of inhibition of midazolam metabolism (human liver microsomes, 1-hydroxymidazolam by LC-MS/MS)
# Type: biochemical
# Design: 0.1 mg/mL human liver microsomes
# test.conditions: 2 μM midazolam, 0.1 mg/mL human liver microsomes
# Protocol: 3. Determination of IC50 Against CYP3A4 by Measurement of Inhibition of Midazolam Metabolism This assay was performed using a standard 96 well plate design. […] Quantitation of metabolite peak area ratio against internal standard is determined by LC-MS/MS analysis. The production of 1-hydroxymidazolam from midazolam metabolism is determined after incubation for eight minutes by comparison to a standard curve generated for the metabolite. […]
pIC50: recorded values
To interpret pIC50, take it as minus log10 of a concentration measured in moles per litre.

>  <compound>
CC1(C)CCCN(C(=O)c2ccccc2S(=O)(=O)Nc2cccnc2)C1 [Example 29]

>  <pIC50>
7.12

$$$$

Entry O=C(c1ccccc1S(=O)(=O)Nc1cccnc1)N1CCc2ccccc2C1 [Example 83] , system UniProtKB P08684: what pIC50 was measured? 7.46

Entry Cc1ccncc1NS(=O)(=O)c1ccccc1C(=O)N(C)Cc1ccccc1 [Example 139] , system UniProtKB P08684: what pIC50 was measured? 7.32

Entry Cc1cncc(NS(=O)(=O)c2ccccc2C(=O)NCc2ccc(F)c(F)c2)c1 [Example 320] , system UniProtKB P08684: what pIC50 was measured? 8.22

Entry COc1cncc(NS(=O)(=O)c2ccccc2C(=O)NC(C)Cc2ccc(F)c(F)c2)c1 (stereo not drawn) [Example 135] , system UniProtKB P08684: what pIC50 was measured? 7.74

Entry CCC(CC)NC(=O)c1ccccc1S(=O)(=O)Nc1cncc(OC)c1 [Example 193] , system UniProtKB P08684: what pIC50 was measured? 7.89

Entry COc1ccncc1NS(=O)(=O)c1ccccc1C(=O)NC(C)(C)C [Example 254] , system UniProtKB P08684: what pIC50 was measured? 7.40

Entry Cc1cncc(NS(=O)(=O)c2ccccc2C(=O)N2CCCCC2)c1 [Example 30] , system UniProtKB P08684: what pIC50 was measured? 7.25

Entry COc1ccc(CNC(=O)c2ccccc2S(=O)(=O)Nc2cncc(C)c2)cc1 [Example 361] , system UniProtKB P08684: what pIC50 was measured? 7.80

Entry CCCN(CC1CC1)C(=O)c1ccccc1S(=O)(=O)N(C)c1cncc(OC)c1 [Example 329] , system UniProtKB P08684: what pIC50 was measured? 7.49

Entry Cc1cncc(NS(=O)(=O)c2ccccc2C(=O)NCc2ccc3c(c2)CCO3)c1 [Example 94] , system UniProtKB P08684: what pIC50 was measured? 7.80

Entry Cc1ccncc1NS(=O)(=O)c1ccccc1C(=O)N(C)Cc1ccc(C(F)(F)F)cc1 [Example 165] , system UniProtKB P08684: what pIC50 was measured? 7.37

Entry COc1cncc(NS(=O)(=O)c2ccccc2C(=O)NC(C)c2ccc(Cl)cc2)c1 (stereo not drawn) [Example 182] , system UniProtKB P08684: what pIC50 was measured? 8.22

Entry CCCCN(C)C(=O)c1ccccc1S(=O)(=O)Nc1cncc(OC)c1 [Example 353] , system UniProtKB P08684: what pIC50 was measured? 7.74

----------
# tested.target: CYP3A4 (Homo sapiens)
# assay.method.text: Determination of IC50 against CYP3A4 by measurement of inhibition of testosterone metabolism (human liver microsomes, 6-β-OH-testosterone by LC-MS/MS)
# Type: biochemical
# Design: 0.1 mg/mL human liver microsomes
# test.conditions: read-out: IC50 (Testo.)
pIC50: recorded values
To interpret pIC50, take it as minus log10 of a concentration measured in moles per litre.

The following compounds have reported results that may help.
>  <compound>
CC(C)(NC(=O)c1ccccc1S(=O)(=O)Nc1cccnc1)C1CC1 [Example 4]

>  <pIC50>
7.02

$$$$
>  <compound>
COc1ccncc1NS(=O)(=O)c1ccccc1C(=O)NCCc1ccccc1F [Example 222]

>  <pIC50>
7.47

$$$$
>  <compound>
COc1ccc(CNC(=O)c2ccccc2S(=O)(=O)Nc2cccnc2)c(OC)c1 [Example 53]

>  <pIC50>
7.31

$$$$
>  <compound>
CCCCNC(=O)c1ccccc1S(=O)(=O)Nc1cnccc1OC [Example 19]

>  <pIC50>
6.77

$$$$
>  <compound>
Cc1cncc(NS(=O)(=O)c2ccccc2C(=O)NC(C)C(C)C)c1 (stereo not drawn) [Example 317]

>  <pIC50>
7.72

$$$$

I have this compound here, O=C(NCc1ccccc1)c1ccccc1S(=O)(=O)Nc1cccnc1 [Example 12] , and I need its recorded pIC50. 7.54

----------
# tested.target: CYP3A4 (Homo sapiens, UniProt P08684)
# Sequence (P08684 whole entry): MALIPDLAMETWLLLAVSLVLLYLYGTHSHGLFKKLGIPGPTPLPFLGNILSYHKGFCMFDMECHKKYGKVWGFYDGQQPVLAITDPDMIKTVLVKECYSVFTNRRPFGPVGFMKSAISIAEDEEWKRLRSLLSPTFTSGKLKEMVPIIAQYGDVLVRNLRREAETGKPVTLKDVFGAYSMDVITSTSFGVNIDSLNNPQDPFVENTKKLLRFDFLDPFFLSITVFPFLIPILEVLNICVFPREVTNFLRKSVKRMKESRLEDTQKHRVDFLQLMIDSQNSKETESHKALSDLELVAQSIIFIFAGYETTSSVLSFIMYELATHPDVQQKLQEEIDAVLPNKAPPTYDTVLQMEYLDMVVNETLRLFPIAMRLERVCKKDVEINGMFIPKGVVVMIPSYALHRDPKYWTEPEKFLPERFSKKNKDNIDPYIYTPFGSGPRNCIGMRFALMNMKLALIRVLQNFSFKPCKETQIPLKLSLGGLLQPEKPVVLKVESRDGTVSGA
# assay.method.text: Determination of compound Kiapp against recombinant CYP3A4 enzyme (BFC fluorescent substrate)
# Type: biochemical
# test.conditions: Super. enzyme preparation, read-out: Kiapp (BFC, Super.)
readout.kind: Ki (nM)
Hi! Could you send only the number? It should be in nM, unit omitted.

The following compounds have reported results that may help.
>  <compound>
COc1cncc(NS(=O)(=O)c2ccccc2C(=O)N2CCOCC2)c1

>  <measurement.unit>
nM

>  <result>
148

$$$$
>  <compound>
CCOCCNC(=O)c1ccccc1S(=O)(=O)Nc1cncc(OC)c1

>  <measurement.unit>
nM

>  <result>
142

$$$$
>  <compound>
CCOc1ccncc1NS(=O)(=O)c1ccccc1C(=O)NCC(C)CC (centres unmarked)

>  <measurement.unit>
nM

>  <result>
26

$$$$
>  <compound>
COc1cncc(NS(=O)(=O)c2ccccc2C(=O)NCc2ccc(S(C)(=O)=O)cc2)c1

>  <measurement.unit>
nM

>  <result>
182

$$$$

I have this compound here, CCOc1cncc(NS(=O)(=O)c2ccccc2C(=O)NCC2CC2)c1 , and I need its recorded Ki. 58.1
